These data points were gathered from patent US20040215284A1.

Below: a set of entries, each annotated with reported BLADDER CONTRACTIONS quiescence time.
- Tested on: rhythmic bladder-voiding contractions in anaesthetised rats
- protocol_description: Rhythmic bladder-voiding contractions induced by bladder filling in anaesthetised rats
- Assay type: in vivo, rat
- measurement_setup: 300 μg/kg i.v., mean ± SEM
measured_parameter: BLADDER CONTRACTIONS quiescence time (min)

- molecule: "Cc1cccc(C#Cc2ccccc2)n1 [MPEP, 2-methyl-6-(phenylethynyl)pyridine]"
  test_result: 12.64
- molecule: "Cc1nc(C#Cc2cccnc2)cs1 [MTEP, 3-(2-methylthiazol-4-yl)ethynylpyridine]"
  test_result: 13.90
- molecule: "CN1CC[C@]23c4c5ccc(O)c4O[C@H]2[C@@H](O)C=C[C@H]3[C@H]1C5 [Morphine]"
  test_result: 18.17
- molecule: "N[C@](CC1c2ccccc2Oc2ccccc21)(C(=O)O)[C@H]1C[C@@H]1C(=O)O [LY 341495]"
  test_result: 4.48
